Data credit: PubChem BioAssay (NCI)

# Tested on: OVCAR-5 ovarian
# PROTOCOL DESCRIPTION: NCI tumour cell line growth inhibition, 48 h
molecules and their reported GI50

Solved cases (2 shown):
# MOLECULE, GI50
measured = [
    ("COc1ccc2c(c1)N(CCO)C1=C(C(=O)OC1)C2c1cccc(F)c1 (stereo not drawn)", "2.07 µM"),
    ("CCN(CC)c1ccc2cc(C(=O)Nc3ccc4[nH]c(C(=O)N5C[C@@H](CCl)c6c5cc(OC(=O)Nc5ccccc5)c5[nH]cc(C)c65)cc4c3)oc2c1", "264 µM"),
]

What value of GI50 has been recorded for this entry: COc1ccc(-c2[nH]c3ccccc3c2-c2ccc(OC)cc2)cc1
15.4 µM

What would you report for CC(=O)/C=C/c1cn(C(=O)OC(C)(C)C)c2ccc(Br)cc12 ?
25.6 µM

Can you check O=C1OCC2=C1C(c1ccccc1)c1cc3c(cc1N2)OCO3 (stereo not drawn) next?
0.0829 µM

Further, for CCOc1ccccc1C(=O)N1CCN(c2cc(Cl)cc(Cl)c2)CC1 ?
0.0552 µM

How about CCCCCCCCCCCCCCCCCC[n+]1ccc2c(C)c3c(c(C)c2c1)c1cc(O)ccc1n3CC ?
4.38 µM

Please do the same for CCCN(CCS(C)(=O)=O)Cc1ccc(-c2ccc3ncnc(Nc4ccc(OCc5cccc(F)c5)c(Cl)c4)c3c2)o1 as well.
> 25 µM

Input C[C@@H]1CN(Cc2ccc(F)cc2)[C@@H](C)CN1C(=O)c1cc2c(C(=O)C(=O)N(C)C)cn(C)c2cc1Cl
21.8 µM

Another molecule: C/C(=C\c1ccc2ccccc2c1)[N+](=O)[O-]
1.87 µM

Another molecule to check: O=C1CCC(N2Cc3cc(CNC(=O)C(F)(F)c4ccc(Cl)cc4)ccc3C2=O)C(=O)N1 (stereo not drawn)
> 100 µM

Can you handle COc1cc2c3c(n(C)c(=O)c2cc1OC)-c1cc2c(cc1/C3=C\CCCCN1C(=O)c3ccccc3C1=O)OCO2 next?
74 µM

Then what about the molecule O=C1/C(=C/c2ccccc2[N+](=O)[O-])Cc2ccccc21 ?
2.19 µM
